# EXPERIMENTAL PROTOCOL: Terminal half life in Sprague-Dawley rat at 2 mg/kg, iv measured up to 24 hrs by LC-MS/MS analysis
# Assay type: ADME, organism-based
# CONDITION PARAMETERS: in vivo, read-out: beta t1/2 (converted)

SMILES TEXT: O=C(C[C@@H](CC1CCCC1)C(=O)N1CC2(CC2)C[C@H]1c1nc(-c2ccc(F)cc2C(F)(F)F)no1)NO
UNIT ABBREVIATION: h
half-life: 3.7
